# MEASUREMENT_TARGET: L. japonicum LXR (Lethenteron camtschaticum, UniProt A0A1S6EKM6)
# Sequence (A0A1S6EKM6 89-387): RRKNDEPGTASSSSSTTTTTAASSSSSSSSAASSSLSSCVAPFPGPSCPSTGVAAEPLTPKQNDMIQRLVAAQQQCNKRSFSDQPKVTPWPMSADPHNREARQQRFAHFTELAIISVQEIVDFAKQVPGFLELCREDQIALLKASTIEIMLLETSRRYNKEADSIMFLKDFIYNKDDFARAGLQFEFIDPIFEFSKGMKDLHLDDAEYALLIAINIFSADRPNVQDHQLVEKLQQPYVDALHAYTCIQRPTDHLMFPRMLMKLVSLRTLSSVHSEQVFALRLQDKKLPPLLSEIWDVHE
# ASSAY_PROTOCOL: GAL4-LBD chimeric receptor luciferase transactivation assay in COS-1 cells
# Type: cell-based
MEASUREMENT_KIND: transcriptional activation of lamprey LXR (in words)

- C[C@H](CC[C@@H]1OC1(C)C)[C@H]1CC[C@H]2[C@@H]3CC=C4C[C@@H](O)CC[C@]4(C)[C@H]3CC[C@]12C [24,25-EC, 24(S),25-epoxycholesterol]: strongly induced
- CC(C)[C@@H](O)CC[C@@H](C)[C@H]1CC[C@H]2[C@@H]3CC=C4C[C@@H](O)CC[C@]4(C)[C@H]3CC[C@]12C [24-HC, 24(S)-hydroxycholesterol]: strongly induced

Value source: paper PMC5381633
